assay: Cell Viability - LYMP2-009 (AID 968); settings: LYMP2-009 lymphoblastoid cell viability; series mostly up to 92.2 µM;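 note: cells exposed to compound for 24 h at 37 °C; 0% = DMSO alone and the full-kill end = tetraoctylammonium bromide at 92 µM; nearly all actives have a fitted effect of over 55% in size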
Results filed as inconclusive are left out. Active and inactive are the calls of the source. Calls come from the whole dose curve; as a rule, active = well fitted cell-killing curve with a large enough effect; inconclusive = small, poorly fitted or top-dose-only effect; inactive = flat fitted curve, though single readings scatter.

molecule	outcome
Brc1cc(Br)c(Oc2cc(Br)c(Br)cc2Br)cc1Br	inactive
CCCCC(CC)COP(=O)(OCC(CC)CCCC)OCC(CC)CCCC (stereo not drawn)	inactive
NC(=O)Nc1nc2ccccc2[nH]1	inactive
CCCCCCN	inactive
c1ccncc1	inactive
CCCCOC(=O)COc1ccc(Cl)cc1Cl	inactive
Cc1c(N)cccc1Cl	inactive
OCC(CO)(CBr)CBr	inactive

----------
molecular target: Cytochrome P450 1A2 (Homo sapiens); assay: p450-cyp1a2 (AID 410); conditions: recombinant CYP1A2, luciferin-ME demethylation, luminescence; series mostly up to 11.4 µM;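 note: -100% = full effect of reference inhibitor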
Inconclusive results are not listed. The source made the active and inactive calls. Calls follow the shape of the full dose curve.
# activity change, negative = inhibition per record follows

smi	activity change, negative = inhibition
CO[C@@H](NC(N)=O)C(=O)O	-6.4% [at 2.29 µM] (inactive)
Oc1c(Br)cc(CN(Cc2cc(Br)c(O)c(Br)c2)C2CCCCC2)cc1Br	-5.7% [at 2.29 µM] (inactive)
Cc1cnc2cc(Cl)ccc2c1SCC(=O)O	-2.3% [at 2.29 µM] (inactive)
Cn1c(=O)c2[nH]c([C@@H]3CC(=O)C[C@H](c4nc5c([nH]4)c(=O)n(C)c(=O)n5C)N3)nc2n(C)c1=O	-18.2% [at 2.29 µM] (inactive)
O=C(O)c1ccccc1C1c2ccccc2Oc2ccccc21	-20.4% [at 2.29 µM] (inactive)
CC(C)(C)c1ccc(OC(=O)Nc2ccc(O)c(C(=O)O)c2)cc1	6.5% [at 2.29 µM] (inactive)

----------
target: Glucocorticoid receptor (Homo sapiens) (UniProt P04150); assay: GR-EFC Redistribution (AID 451); conditions: CHO-K1 GR-EFC translocation, beta-gal luminescence, 2 h
Sequence (P04150 whole entry, looked up): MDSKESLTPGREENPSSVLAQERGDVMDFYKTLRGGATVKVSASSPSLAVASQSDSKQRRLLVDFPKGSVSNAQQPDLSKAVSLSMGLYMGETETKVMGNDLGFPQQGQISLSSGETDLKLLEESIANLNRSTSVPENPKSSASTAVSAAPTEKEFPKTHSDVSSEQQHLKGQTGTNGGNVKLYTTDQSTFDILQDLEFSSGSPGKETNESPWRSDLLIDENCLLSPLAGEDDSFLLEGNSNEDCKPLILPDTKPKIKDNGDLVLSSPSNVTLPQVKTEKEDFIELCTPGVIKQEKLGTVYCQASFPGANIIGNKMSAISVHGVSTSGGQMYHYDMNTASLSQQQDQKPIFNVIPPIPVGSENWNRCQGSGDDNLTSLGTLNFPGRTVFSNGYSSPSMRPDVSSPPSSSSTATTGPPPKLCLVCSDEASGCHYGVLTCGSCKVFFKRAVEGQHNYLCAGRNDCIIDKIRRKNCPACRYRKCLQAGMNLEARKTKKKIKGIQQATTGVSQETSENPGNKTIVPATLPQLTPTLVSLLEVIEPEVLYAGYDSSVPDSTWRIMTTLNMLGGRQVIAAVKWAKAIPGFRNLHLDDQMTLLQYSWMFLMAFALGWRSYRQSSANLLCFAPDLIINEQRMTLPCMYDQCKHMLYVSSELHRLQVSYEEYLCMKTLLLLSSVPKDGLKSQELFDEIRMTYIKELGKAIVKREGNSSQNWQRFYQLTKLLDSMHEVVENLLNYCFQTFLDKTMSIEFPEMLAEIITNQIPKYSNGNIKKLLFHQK
Activity calls are given as the source filed them. Calls follow the shape of the full dose curve.
Outcomes: active, inactive

smi	category
CC(C)(N)CO[C@H]1C[C@H]2CC[C@@]1(C)C2(C)C	inactive
O=c1cnc2cnc(Oc3ccccc3)nc2n1Cc1ccc(F)cc1	inactive
COCCn1c(=O)c(-c2ccc(OC)cc2)nc2cnc(OC)nc21	inactive
CC(=O)O[C@H]1CC[C@]2(C)C(=CC[C@H]3[C@H]4C[C@H]5O[C@]6(CC[C@H](C)CN6)[C@H](C)[C@@H]5[C@]4(C)CC[C@@H]32)C1	inactive
O=C(CCN1CCCCC1)N1CCc2c([nH]c3ccccc23)[C@H]1c1cccnc1	inactive
Oc1c(Br)cc(Br)cc1CN(Cc1cc(Br)cc(Br)c1O)C1CCCCC1	inactive
C[C@H]1C[C@@H]2[C@H]3CCC4=CC(=O)C=C[C@@]4(C)[C@]3(Cl)[C@@H](Cl)C[C@]2(C)[C@]1(O)C(=O)COP(=O)(O)O	active
CNc1ncnc2c1ncn2[C@@H]1O[C@@H](CO)[C@H](O)[C@@H]1O	inactive
COc1cccc2c1[C@H](CO)N1[C@H](C#N)[C@@H]3C[C@H](C(=O)O)[C@@H]([C@@H]1C2)N3C	inactive
CN(CC(=O)O)CC(=O)O	inactive
C/C(=N\[N+](C)(C)C)c1ccc(C)c(C)c1	inactive
O=C1C=C(Nc2nc(C(=O)O)cc(=O)[nH]2)c2ccccc2C1=O	inactive
C[C@](O)(c1ccccc1)c1nccc2ccccc12	inactive
O=C(O)c1cc(N=Nc2ccc([N+](=O)[O-])cc2)ccc1O	inactive
NC(=O)[C@@H]1CCCN1Cc1ccc2c(c1)OCO2	inactive
C=C(Br)CN(C)CC(=C)Br	inactive
O=C1C=CC(=Nc2cccc3c(N=C4C=CC(=O)O4)cccc23)O1	inactive
Oc1ccccc1C(Sc1nc2ccccc2s1)Sc1nc2ccccc2s1	inactive
COc1ccc(CCCC(=O)O)c(C)c1	inactive
N=C(N)SCCc1ccccn1	inactive
Cn1ncc2c(NCCc3ccccc3)nc(Cl)nc21	inactive
O=C(O)C12CC3(C(=O)O)CC(C(=O)O)(CC(C(=O)O)(C1)C3=O)C2=O	inactive

----------
test: Cell Viability - LYMP2-011 (AID 969); settings: LYMP2-011 lymphoblastoid cells viability; series mostly up to 92.2 µM;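 note: cells exposed to compound for 24 hours; nearly all actives have a fitted effect of over 60% in size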
Inconclusive results are not listed. Active and inactive are the calls of the source. Calls come from the whole dose curve; as a rule, active = well fitted cell-killing curve with a large enough effect; inconclusive = small, poorly fitted or top-dose-only effect; inactive = flat fitted curve, though single readings scatter.
Outcomes: active, inactive

molecule	category
CCC(Cl)CC(Cl)C(Cl)C(Cl)C(Cl)C(C)Cl (stereo not given)	inactive
C=CC(=O)CC	inactive
Brc1cc(Br)c(Oc2cc(Br)c(Br)cc2Br)cc1Br	inactive
c1ccc(CSCc2ccccc2)cc1	inactive
CC(=O)CC(=O)Nc1ccccc1	inactive
CC(=O)c1ccc(Cl)c(Cl)c1Cl	inactive
COc1cc(-c2ccc(N=C=O)c(OC)c2)ccc1N=C=O	inactive
c1ccncc1	inactive
CC(C)S	inactive
Nc1cc([N+](=O)[O-])ccc1O	inactive
Nc1cnn([C@@H]2O[C@H](CO)[C@@H](O)[C@H]2O)c(=O)n1	inactive
CCCCOC(=O)COc1ccc(Cl)cc1Cl	inactive
Cc1cccnc1	inactive
C1CCCNCC1	inactive
Nc1ccc(N=Nc2ccccc2)c(N)c1	inactive
c1ccc2ncccc2c1	inactive
c1ccc(Nc2cccc3ccccc23)cc1	inactive
CCCCCCCC/C=C\CCCCCCCC(=O)N(CCO)CCO	inactive
COc1ccc([N+](=O)[O-])cc1N	inactive
CCCCCCN	inactive
C/C(Cl)=C/CCl	inactive
N=C1C=CC(=C(c2ccc(N)cc2)c2ccc(N)cc2)C=C1	active
CCCCNCC	inactive
O=C(O)/C=C/c1ccc(/C=C/C(=O)O)cc1	inactive
Nc1cc(C(=O)O)c(O)c(S(=O)(=O)O)c1	inactive
CC(/C=C/C=C(C)/C=C/C(=O)O)=C\C=C\C=C(C)\C=C\C=C(C)\C=C\C(=O)O	inactive
c1cc2c3c(c1)ccc1cccc(c13)C2	inactive
CCN(CC)c1ccc2c(C)cc(=O)oc2c1	inactive
O=C(Cl)c1ccc([N+](=O)[O-])cc1	inactive
c1c[nH]cn1	inactive
O=C(O)c1cc(N=Nc2ccc([N+](=O)[O-])cc2)ccc1O	inactive
S=C(NC1CCCCC1)NC1CCCCC1	inactive
O=CC(=O)c1ccccc1	inactive
C=CC(=O)OCCCCCCOC(=O)C=C	active
O=[N+]([O-])c1cc(N(CCO)CCO)ccc1NCCO	inactive
Cc1cc2nc(N)sc2cc1C	inactive
O=C(OCc1ccccc1)c1ccccc1O	inactive
CCCCCCCCC1CO1 (stereo not given)	inactive
O=[N+]([O-])c1cccc(I)c1	inactive
Oc1c(Cl)cc(Cl)c(Cl)c1Cl	inactive
Clc1nc2ccccc2nc1Cl	inactive
CCc1ccc(C(c2ccc(CC)cc2)C(Cl)Cl)cc1	inactive
O=[N+]([O-])c1ccccc1Nc1ccccc1	inactive
CC(=O)Nc1cccc(C)c1	inactive
CCCCC(CC)COP(=O)(OCC(CC)CCCC)OCC(CC)CCCC (stereo not given)	inactive
CC(C)(C)C(=O)C1C(=O)c2ccccc2C1=O	inactive
COc1ccc(C(=O)Nc2ccccc2)cc1[N+](=O)[O-]	inactive
CCCCCCc1ccc(-c2ccc(C#N)cc2)cc1	inactive
Nc1ccc(N)c(Cl)c1	inactive
C/C=C/C=C/C=O	active
CC(=O)OC1CC(C)OC(C)O1 (stereo not given)	inactive
C/C=C1/C(=O)C[C@H]2[C@@H]3CCC4=CC(=O)CC[C@]4(C)[C@H]3CC[C@]12C	active
CC(C)COC(=O)COc1cc(Cl)c(Cl)cc1Cl	inactive
Brc1cc(Oc2cc(Br)c(Br)c(Br)c2Br)c(Br)c(Br)c1Br	inactive
c1ccc(COCc2ccccc2)cc1	inactive
Nc1ccccc1O	inactive
Cc1ccc(S(N)(=O)=O)cc1	inactive
OCC(CBr)(CBr)CBr	inactive
CCCCC(CC)COC(=O)COc1ccc(Cl)cc1Cl (stereo not given)	inactive
CCNC(=S)NCC	inactive

----------
experiment: Cell Viability - LYMP2-016 (AID 984); details: LYMP2-016 lymphoblastoid cell viability, qHTS; series mostly up to 92.2 µM;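 note: cells exposed to compound for 24 hours at 37 °C; nearly all actives have a fitted effect of over 55% in size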
Inconclusive results are not listed. Active and inactive are the calls of the source. Calls come from the whole dose curve; as a rule, active = well fitted cell-killing curve with a large enough effect; inconclusive = small, poorly fitted or top-dose-only effect; inactive = flat fitted curve, though single readings scatter.
Outcome codes: active, inactive

compound	category
CCCCCCCC/C=C\CCCCCCCC(=O)N(CCO)CCO	inactive
CC(=O)OC(C(=O)c1ccccc1)c1ccccc1 (stereo not given)	inactive
OCC(CO)(CBr)CBr	inactive
CC(=O)OC1CC(C)OC(C)O1 (stereo not given)	inactive
CC(=O)OCc1ccc2c(c1)OCO2	inactive
COc1ccc([N+](=O)[O-])cc1N	inactive
COc1cc(-c2ccc(N=C=O)c(OC)c2)ccc1N=C=O	inactive
COc1ccc(C)cc1N	inactive
CCCC(=O)OC(=O)CCC	inactive
Oc1ccc2c(c1)OCO2	inactive
N=C1C=CC(=C(c2ccc(N)cc2)c2ccc(N)cc2)C=C1	active
O=[N+]([O-])c1cccc(I)c1	inactive
CCN(CC)c1ccc2c(C)cc(=O)oc2c1	inactive
O=C(O)/C=C/c1ccc(/C=C/C(=O)O)cc1	inactive
CCc1ccc(C(c2ccc(CC)cc2)C(Cl)Cl)cc1	inactive
O=C(OCc1ccccc1)c1ccccc1O	inactive
Cc1c(N)cccc1Cl	inactive
O=[N+]([O-])c1cc(Cl)c(Cl)c(Cl)c1Cl	inactive
O=[N+]([O-])c1cc(N(CCO)CCO)ccc1NCCO	inactive
C=CC(=O)OCCCCCCOC(=O)C=C	active
Brc1cc(Oc2cc(Br)c(Br)c(Br)c2Br)c(Br)c(Br)c1Br	inactive
O=C(O)c1ccc([N+](=O)[O-])cc1	inactive
O=[N+]([O-])c1ccccc1Nc1ccccc1	inactive
Oc1cc(Cl)cc(Cl)c1Cl	inactive
CC(C)S	inactive
OC1CCCCC1	inactive
Nc1cc(C(=O)O)c(O)c(S(=O)(=O)O)c1	inactive
COc1ccc(C(=O)Nc2ccccc2)cc1[N+](=O)[O-]	inactive
CCCCCCCCOc1ccc(C(=O)O)cc1	inactive
c1c[nH]cn1	inactive

All figures here come from PubChem BioAssay (NCATS).
